Settings: in methyl acetate, 288.15 K
parameter: solubility (mole fraction)

>>> measvalue("c1ccc2[nH]cnc2c1")
0.00918

###

Details: in water, 283.15 K
parameter: solubility (mole fraction)

>>> measvalue("c1ccc2[nH]cnc2c1")
0.000498

###

Settings: in ethanol, 298.15 K
parameter: solubility (mole fraction)

>>> measvalue("c1ccc2[nH]cnc2c1")
0.0993

###

Conditions: in isopropyl acetate, 303.15 K
parameter: solubility (mole fraction)

>>> measvalue("c1ccc2[nH]cnc2c1")
0.0132

###

Details: in 2-butanone, 298.15 K
parameter: solubility (mole fraction)

>>> measvalue("c1ccc2[nH]cnc2c1")
0.0341

###

Details: in isopropanol, 308.15 K
parameter: solubility (mole fraction)

>>> measvalue("c1ccc2[nH]cnc2c1")
0.109

###

Details: in n-propanol, 313.15 K
parameter: solubility (mole fraction)

>>> measvalue("c1ccc2[nH]cnc2c1")
0.137
